Tested on: Alternaria solani
experimental details: Test B: tomato early blight, preventive spray on tomato seedlings, visual disease rating
experimental conditions: tomato early blight; 100 = 100% disease control, 0 = no disease control relative to the controls
Label 1 when Test B rating (disease control) is strictly below 80%; at or above that, label -1.

Solved cases below.
COc1cc(F)c(Nc2c(-c3c(F)cccc3F)c(C)nn2C)c(F)c1 [compound 72]: -1
Cc1nn(C)c(Nc2c(Cl)cc(F)cc2Cl)c1-c1ccc(F)cc1Br [compound 98]: 1
Cc1nn(C)c(Oc2ccc(C#N)cc2F)c1-c1c(F)cc(F)cc1F [compound 27]: -1

Now look at this entry.
Strictly below 80% in Test B rating (disease control)? Cc1nn(C)c(Nc2ccc(F)cc2Br)c1-c1c(Cl)cccc1Cl [compound 114]
1

---

Tested on: Septoria nodorum
experimental details: Test E: Septoria glume blotch, preventive spray on wheat seedlings, visual disease rating
experimental conditions: Septoria glume blotch on wheat, preventive spray; 100 = 100% disease control; rating without asterisk
quantity name: Test E rating (% disease control) (%)
Numbers only, in %.

Below, each entry is followed by its recorded Test E rating (% disease control) result.
Cc1nn(C)c(Nc2c(F)cc(Br)cc2Br)c1-c1ccc(F)cc1I: 0
Cc1nn(C)c(Nc2c(F)cc(F)cc2I)c1-c1ccc(F)cc1Br: 99

Quick batch: Test E rating (% disease control) for everything below.
1. Cc1nn(C)c(Nc2c(F)cc(Cl)cc2Cl)c1-c1ccc(F)cc1I
2. COc1ccc(-c2c(C)nn(C)c2Nc2c(F)cc(F)cc2Cl)c(Cl)c1
3. COc1ccc(-c2c(C)nn(C)c2Nc2c(F)cc(Cl)cc2F)c(Cl)c1

0
73
99

---

Please provide measured Test B rating (disease control) for the entries that follow.
Tested on: Alternaria solani
experimental details: Test B: tomato early blight, preventive spray on tomato seedlings, visual disease rating
experimental conditions: tomato early blight; 100 = 100% disease control, 0 = no disease control relative to the controls
One number for each entry, in %.

Cc1nn(C)c(Nc2c(Cl)cc(F)cc2Br)c1-c1ccc(F)cc1F: 80
Cc1nn(C)c(Nc2ccc(Br)cc2F)c1-c1ccc(F)cc1F: 9
Cc1nn(C)c(Nc2c(F)cc(F)cc2F)c1-c1ccccc1Br: 26
Cc1nn(C)c(Nc2ccc(Cl)cc2Cl)c1-c1ccc(F)cc1F: 64
Cc1nn(C)c(Nc2ccc(F)cc2F)c1-c1ccccc1Cl: 99

Please state, for each entry, its recorded Test B rating (disease control).
1. COc1ccc(Nc2c(-c3c(F)cccc3F)c(C)nn2C)c(F)c1
2. Cc1nn(C)c(Nc2c(F)cccc2F)c1-c1c(F)cccc1F

1: 99; 2: 99

---

Tested on: Alternaria solani
experimental details: Test B: tomato early blight, preventive spray on tomato seedlings, visual disease rating
experimental conditions: tomato early blight; 100 = 100% disease control, 0 = no disease control relative to the controls
Is Test B rating (disease control) at least 80%? Then Yes. If not, No.

Identify whether the reported Test B rating (disease control) of the following molecule is 80% or greater: COc1cc(F)c(-c2c(C)nn(C)c2Nc2ccc(C#N)cc2Cl)c(F)c1 [compound 32]
Yes

Decide: is the reported value of Test B rating (disease control) for Cc1nn(C)c(Nc2c(Cl)cc(F)cc2Cl)c1-c1c(Cl)cccc1Cl [compound 115] equal to or greater than 80%?
No

Assess whether reported Test B rating (disease control) for Cc1nn(C)c(Nc2c(Cl)cc(Cl)cc2Cl)c1-c1ccc(F)cc1F [compound 165] sits at 80% or higher.
No

Is it the case that COc1ccc(Nc2c(-c3ccc(F)cc3Cl)c(C)nn2C)c(Cl)c1 [compound 101] has Test B rating (disease control) reaching or exceeding 80%?
Yes

Quick check, Test B rating (disease control) >= 80%? COc1ccc(-c2c(C)nn(C)c2Oc2ccc(C#N)cc2Cl)c(Cl)c1 [compound 93]
No

Is Test B rating (disease control) for Cc1nn(C)c(Nc2c(Cl)cc(Br)cc2Cl)c1-c1ccc(F)cc1Cl [compound 164] at or above 80%?
No

Determine whether measured Test B rating (disease control) meets or exceeds 80% for Cc1nn(C)c(Nc2c(F)cc(F)cc2Cl)c1-c1c(F)cccc1Cl [compound 87]
Yes

Hi team, for COc1ccc(-c2c(C)nn(C)c2Oc2c(F)cc(C#N)cc2F)c(F)c1 [compound 14] , is the recorded Test B rating (disease control) at or above 80%?
Yes

In plain terms: is recorded Test B rating (disease control) at least 80% for Cc1nn(C)c(Nc2c(Cl)cc(Br)cc2Cl)c1-c1ccc(F)cc1F [compound 155] ?
No
